# Lookup of reported Fold change in binding relative to BKO-4A8 keyed by entry
Target: T1, human CXCR2 (human, UniProt P25025 1-360)
T1 construct: also called CXC chemokine receptor 2; hCXCR2
T1 sequence: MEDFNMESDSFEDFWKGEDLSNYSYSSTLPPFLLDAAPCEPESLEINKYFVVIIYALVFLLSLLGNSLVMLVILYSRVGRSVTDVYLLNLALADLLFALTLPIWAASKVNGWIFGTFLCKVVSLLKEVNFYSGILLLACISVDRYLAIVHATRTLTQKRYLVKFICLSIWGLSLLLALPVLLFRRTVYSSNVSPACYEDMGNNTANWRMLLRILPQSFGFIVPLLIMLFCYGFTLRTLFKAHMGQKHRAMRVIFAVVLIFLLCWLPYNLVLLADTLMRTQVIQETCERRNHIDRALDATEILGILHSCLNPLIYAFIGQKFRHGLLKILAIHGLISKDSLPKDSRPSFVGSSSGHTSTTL
Test: flow cytometry, CXCR2-transfected Expi293F cells
ASSAY_READOUT: Fold change in binding relative to BKO-4A8 (fold)

{"BINDER": "BKO-4A8 variant VH R53Q (antibody, human IgG4 S228P, lambda, V domains shown, IgG4 S228P, lambda; parental light chain; also called 4A8 VH R53Q) VH: EVQLLESGGGLVQPGGSLRLSCAASGFTFSSSTMSWVRQAPGKGLEWVSAISGQGRNTYYADSVKGRFTISRDNSRNTLYLQMNSLRAEDTAVYYCAIQMGYWGQGILVTVSS VL: QSALTQPPSASGSPGQSVTISCIGTSSDVGGYNYVSWYQQHPDKAPKLMIYEVNKRPSGVPDRFSGSKSGNTASLTVSGLQAEDEADYYCSSYAGNNNFGVFGGGTKLTVLG", "MEASURED_VALUE": 0.64}
{"BINDER": "BKO-4A8 variant VL N52D (antibody, human IgG4 S228P, lambda, V domains shown, IgG4 S228P, lambda; parental heavy chain; also called 4A8 VL N52D) VH: EVQLLESGGGLVQPGGSLRLSCAASGFTFSSSTMSWVRQAPGKGLEWVSAISGRGRNTYYADSVKGRFTISRDNSRNTLYLQMNSLRAEDTAVYYCAIQMGYWGQGILVTVSS VL: QSALTQPPSASGSPGQSVTISCIGTSSDVGGYNYVSWYQQHPDKAPKLMIYEVDKRPSGVPDRFSGSKSGNTASLTVSGLQAEDEADYYCSSYAGNNNFGVFGGGTKLTVLG", "MEASURED_VALUE": 1.7}

meta.source: patent US20240301076A1
